Target: T1, Recombinant human MASP1 active protease (amino acids 297-699, C-terminal His Tag) (human, UniProt P48740 297-699)
T1 sequence: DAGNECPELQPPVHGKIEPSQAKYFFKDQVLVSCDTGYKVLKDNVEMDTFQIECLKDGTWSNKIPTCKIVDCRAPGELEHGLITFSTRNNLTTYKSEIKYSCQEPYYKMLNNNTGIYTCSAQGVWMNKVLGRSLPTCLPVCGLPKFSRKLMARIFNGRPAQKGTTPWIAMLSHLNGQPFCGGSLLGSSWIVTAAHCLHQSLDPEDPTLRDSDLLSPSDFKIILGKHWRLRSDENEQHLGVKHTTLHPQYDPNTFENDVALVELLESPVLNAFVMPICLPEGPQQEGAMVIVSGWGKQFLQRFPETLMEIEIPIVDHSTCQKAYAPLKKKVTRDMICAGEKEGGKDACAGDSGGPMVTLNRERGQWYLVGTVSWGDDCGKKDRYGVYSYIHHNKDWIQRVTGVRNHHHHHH
Test: cell-based or functional assay
Bridge positions count the residues as written; N and C are the ends. Ends that are not written are not given here.
Catalogue of human MASP1 IC50 (FRET substrate cleavage, enzyme activity) values
Write the value in nM as a bare number.

Recorded human MASP1 IC50 (FRET substrate cleavage, enzyme activity), per entry:
BINDER	UNITS_OF_MEASURE	RECORDED_NUMBER
AICSRSLPPICIPD-NH2 (disulfide 3-11; also: HCl salt) [Ala-1 SFMI-1 HCl amide, AIC+SRSLPPIC+IPD-NH2 (HCl Salt) (Reference No C)]	nM	3.6
AICSRSLPPICIPD-NH2 (disulfide 3-11; also: TFA salt) [Ala-1 SFMI-1 amide, AIC+SRSLPPIC+IPD-NH2 (Reference No B)]	nM	8
GICSRSLPPICIPD-OH (disulfide 3-11; also: HCl salt) [SFMI-1 HCl, GIC+SRSLPPIC+IPD-OH (HCl Salt) (Reference No 2)]	nM	18
GICSRSLPPICIPD-NH2 (disulfide 3-11; also: TFA salt) [SFMI-1 amide, GIC+SRSLPPIC+IPD-NH2 (Reference No 3)]	nM	18
GICSRSLPPICIPD-OH (disulfide 3-11; also: TFA salt) [SFMI-1, GIC+SRSLPPIC+IPD-OH (Reference No 1)]	nM	15.6

Look up human MASP1 IC50 (FRET substrate cleavage, enzyme activity): AICSRSLPPICIPD-OH (disulfide 3-11; also: TFA salt) [Ala-1 SFMI-1, AIC+SRSLPPIC+IPD-OH (Reference No A)] 7.45
